# measured.on: UniProt P01375
# Sequence (P01375 77-233 limits assumed): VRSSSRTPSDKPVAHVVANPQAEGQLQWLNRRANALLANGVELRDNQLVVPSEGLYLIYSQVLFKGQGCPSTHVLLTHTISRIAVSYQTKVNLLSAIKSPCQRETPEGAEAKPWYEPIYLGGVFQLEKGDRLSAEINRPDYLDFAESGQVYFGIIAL
# assay.protocol: TNF-Induced HEK-Blue Assay
# Type: cell-based
# setup.conditions: HEK-Blue-CD40L cells, NF-kB-driven secreted alkaline phosphatase reporter; TNFα 0.5 ng/ml; 18 h; read-out: TNF induced HEK-Blue assay IC50 value
Starred links: 1 amine or outer side, 2 acyl side, 3 side chain; linkers in the order of their positions; H or OH if unused. Positions of bridges follow the written chain, without caps; N, C: chain ends. Non-standard residues stand in square brackets, D forms with d. Residues, ends and D or L forms follow the SMILES beside them. X38 = O=C(O)C1CCC(C(=O)Nc2ccc(-c3ccc(C[C@H](N[*:1])C(=O)[*:2])cc3)cc2)CC1; Phe(4-(3-Py)) = N[C@@H](Cc1ccc(-c2cccnc2)cc1)C(=O)O; Ala(morpholin-4-yl) = N[C@@H](CN1CCOCC1)C(=O)O; Bip = N[C@@H](Cc1ccc(-c2ccccc2)cc1)C(=O)O; Cha = N[C@@H](CC1CCCCC1)C(=O)O; Sar = CNCC(=O)O
assay.metric: IC50

compound | meas.value
CC[C@H](C)[C@@H]1NC(=O)[C@@H](CCCNC(=N)N)NC(=O)[C@H](CC(=O)O)NC(=O)[C@H](Cc2cnc[nH]2)NC(=O)CN(C)C(=O)[C@H](Cc2ccc(-c3ccc(NC(=O)C4CCC(C(=O)O)CC4)cc3)cc2)NC(=O)[C@H](Cc2ccc(-c3ccccc3)cc2)NC(=O)[C@H](CC2CCCCC2)NC(=O)CSC[C@@H](C(=O)NCC(N)=O)NC(=O)[C@H](CC(C)C)NC(=O)[C@H](Cc2cnc[nH]2)NC(=O)[C@H](C(C)C)NC(=O)[C@@H]2CCCN2C1=O (some centres unmarked) [Example 316] ({CH2CO}-[Cha][Bip][X38][Sar]HD[dR]IPVHLCG-NH2; thioether N-13) | 50 to 200 nM

Documented IC50 of CC(C)[C@@H]1NC(=O)[C@H](CCCNC(=N)N)NC(=O)[C@H](C(C)C)NC(=O)[C@@H]2CCCN2C(=O)[C@H](C(C)C)NC(=O)[C@H](CCCNC(=N)N)NC(=O)[C@H](CC(=O)O)NC(=O)[C@@H]2CCCN2C(=O)CN(C)C(=O)[C@H](Cc2ccc(-c3cccnc3)cc2)NC(=O)[C@H](Cc2ccc(-c3ccccc3)cc2)NC(=O)[C@H](CN2CCOCC2)NC(=O)CSC[C@@H](C(=O)NCC(N)=O)NC1=O [Example 92] ({CH2CO}-[Ala(morpholin-4-yl)][Bip][Phe(4-(3-Py))][Sar]PDRVPVRVCG-NH2; thioether N-13) : 200 to 2000 nM
